assay: chemical genetic growth profiling, strain panel (AID 1159580);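 further: tested at 20 µM; growth read once vehicle control cultures reached saturation at 30 °C; 1 = growth at the plate median or of vehicle wells; lower values mean less growth of the strain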; settings: S. cerevisiae deletion strains, growth OD, locus YJR066W, strain TOR1 (second series), stronger effect = lower value
Screen size: about 5,500 compounds; about 2,000 (36%) were called active. Not shown: some 18% with an inconclusive outcome. Some of the results follow.
I'd appreciate it if you could supply normalized growth values for the items below.
Form rule: numeric answer, no unit written next to it.

Requested read-out: normalized growth. Entry: O=C(Nc1ccc(Cl)cc1)O/N=C\c1ccn(-c2ccccc2)n1
0.605

So what's the measured normalized growth for this one? Cc1ccc(N2C(=O)CSC2c2ccc(Cl)c(Cl)c2)cc1Cl (stereo unspecified)
0.913

Give the measured normalized growth of CC1C/C(=N/Nc2ccc(Br)cc2)c2cc(Cl)ccc2S1(=O)=O (stereo unspecified) .
0.783

Using the record for S=C(Nc1cc(Cl)c(Cl)cc1Cl)Nc1ccccc1Br , report its normalized growth.
0.848

State the recorded normalized growth for this entry: Cc1nn(Cc2nnc(SCc3cccc(C(F)(F)F)c3)o2)c(C)c1Br
0.969

I would be grateful if you could share the reported normalized growth for O=[N+]([O-])c1ccc(-c2csc(Nc3ccncc3)n2)cc1 .
0.991

----------
test: chemical genetic growth profiling, strain panel (AID 1159580);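 further: tested at 20 µM; growth read once vehicle control cultures reached saturation at 30 °C; 1 = growth at the plate median or of vehicle wells; lower values mean less growth of the strain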; conditions: S. cerevisiae deletion strains, growth OD, locus YMR205C, strain PFK2, stronger effect = lower value
Screen size: about 5,500 compounds; about 2,000 (36%) were called active. Roughly 18% stayed inconclusive and do not appear here. The list shows a part of the results.
PROPERTY LABEL: normalized growth
The answer should be written as a number, with no unit following it.

# get_value(readout='normalized growth', item= CC1(C)C(O)CC(O)C2(C)C1CC(O)C1(C)C2CCC2(C)C(c3ccoc3)OC(=O)C3OC321 (centres undefined) )
0.999

Give the measured normalized growth of O=[N+]([O-])c1cccc2cn[nH]c12 .
0.991

Give its normalized growth value. Item: COc1cc(OC)c(OC)cc1C=O
1

Tell me the measured normalized growth of C=C1[C@H]2CC[C@@]3(C)[C@H](c4ccoc4)OC(=O)C[C@]13O[C@H]1C[C@H](O)C(C)(C)[C@H](CC(=O)OC)[C@]12C , please.
1.01

Please look up its normalized growth: O=[N+]([O-])c1cccc2c(Br)[nH]nc12
1.05

Query: normalized growth; subject: S=P(N1CC1)(N1CC1)N1CC1
1.01

Query: normalized growth; subject: C=Cc1c(C)c2[n-]c1=Cc1[n-]c(c(CC)c1C)C=c1[n-]c3c(c1C)C(=O)C(C(=O)[O-])C=3c1[n-]c(c(C)c1CCC(=O)[O-])C=2.[Cu] (centres undefined)
1.11

Need normalized growth, item CN(C(=O)CN(CCO)CC(=O)N(C)C(C)(C)Cc1ccccc1)C(C)(C)Cc1ccccc1
1

Fill in the blank: the reported normalized growth of CC(=O)OCC(=O)[C@@]1(O)[C@H](OC(C)=O)CC2C3CCC4=CC(=O)C=C[C@]4(C)[C@@]3(F)[C@@H](O)C[C@@]21C (some centres undefined) is ____.
1.02

Fill blank: measured normalized growth of the compound N#C/C(=C\c1cccc(O)c1)C(=O)O is ____.
1.02

Recorded normalized growth for C=C1C2=CC(=O)O[C@@H](c3ccoc3)[C@]2(C)CCC1[C@@]1(C)C=CC(=O)C(C)(C)[C@@H]1CC(=O)OC (some centres undefined) , please?
1.07

Which normalized growth is listed for Nc1cc(-c2ccncc2)c[nH]c1=O ?
0.559

Fill in: normalized growth of NCC(CC(=O)O)c1ccc(Cl)cc1 (centres undefined) is ___
1.01

What does the record list as normalized growth for C[C@]12C=CC(=O)C=C1CCC1C3C[C@@H](O)[C@](O)(C(=O)CO)[C@@]3(C)C[C@H](O)[C@@]12F (some centres undefined) ?
0.958

Form field: reported normalized growth of COc1cc([C@H]2Oc3cc([C@H]4Oc5cc(O)cc(O)c5C(=O)[C@@H]4O)ccc3O[C@@H]2CO)ccc1O
1.01

For OC[C@H]1OC([S-])[C@H](O)[C@@H](O)[C@@H]1O.[Au+] (some centres undefined) , what is its reported normalized growth?
1.03

Quick one: normalized growth of O=C(O)CCCOc1ccc(Cl)cc1Cl ?
0.955

What measured normalized growth goes with COc1cc(C)c(C(=O)Oc2cc(C)c(C(=O)O)c(O)c2C)c(OC)c1C ?
0.852

Would you mind telling me what normalized growth value was observed for NNCCc1ccccc1 ?
1.02

Given the entry c1ccc2nc(N3CCNCC3)ccc2c1 , report its measured normalized growth.
1

Fill blank: measured normalized growth of the compound CN(C)C(=O)Nc1ccc(Cl)c(Cl)c1 is ____.
0.917

For COc1c(Cl)ccc(Cl)c1C(=O)O , what is its reported normalized growth?
0.975

Recorded normalized growth of CCN(CC)CCOC(=O)C(c1ccccc1)c1ccccc1 , please.
0.971

Which value of normalized growth has been reported for C=C1C2CCC3(C)C(c4ccoc4)OC(=O)CC13OC1CC(OC(C)=O)C(C)(C)C(CC(=O)OC)C12C (centres undefined) in the records?
0.97

If you can, please state the reported normalized growth value of CN1CCN(C2=Nc3ccccc3Oc3ccc(Cl)cc32)CC1 .
0.995

What value of normalized growth has been recorded for this entry: O=c1cc(-c2ccc(O)cc2)oc2cc(O)ccc12
0.922

What does the data say about its normalized growth? Entry: CCCC(C(=O)OCCN(CC)CC)(c1ccccc1)c1ccccc1
0.972

State the recorded normalized growth for this entry: O=c1cc(-c2ccccc2)oc2cc(O)c(O)cc12
0.955

# input compound: C=C1C(C2(C)C=CC(=O)C(C)(C)C2CC(=O)OC)CC[C@@]2(C)[C@H](c3ccoc3)OC(=O)C3OC132 (some centres undefined) ; wanted: its normalized growth
1

Reported normalized growth for CO[C@]12C[C@@H](COC(=O)c3cncc(Br)c3)CN(C)[C@@H]1Cc1cn(C)c3cccc2c13 : what is it?
0.977

Requested read-out: normalized growth. Entry: CC12CC3CC(C)(C1)CC(N)(C3)C2
0.993

Query: normalized growth; subject: NC(N)=O
1.02

// normalized growth lookup, key: CN(C)CCOC(=O)C(c1ccccc1)C1(O)CCCC1 (centres undefined)
0.993

I would be grateful if you could share the reported normalized growth for Clc1ccc2c(c1)C(N1CCNCC1)=Nc1ccccc1O2 .
0.998

Form field: reported normalized growth of Cc1ncc([N+](=O)[O-])n1CC(C)O (centres undefined)
0.979

What does the data say about its normalized growth? Entry: C=C[C@H]1CN2CC[C@H]1C[C@@H]2[C@H](O)c1ccnc2ccccc12
0.988

// lookup normalized growth for C/C=C/C(=O)N(CC)c1ccccc1C
1.01

Given the entry C=C1C2CC[C@@]3(C)[C@H](c4ccoc4)OC(=O)C[C@]13O[C@H]1CC(O)C(C)(C)C(CC(=O)OC)[C@@]21C (some centres undefined) , report its measured normalized growth.
0.962

Which normalized growth is reported for this compound? CC1=C2[C@H]3OC(=O)[C@@H](C)[C@@H]3CC[C@@]2(C)C=CC1=O
0.982

Could you tell me which normalized growth is on file for COc1c2ccoc2nc2c(OC)c(OCC(O)C(C)(C)O)ccc12 (centres undefined) ?
1.04

State the recorded normalized growth for this entry: O=c1cc(-c2cc(O)c(O)c(O)c2)oc2cc(O)cc(O)c12
0.961

Fill in: normalized growth of CCCCCC1C(=O)CCC1CC(=O)O (centres undefined) is ___
0.969

What does the record list as normalized growth for O=c1cc(-c2ccccc2)oc2c(O)c(O)ccc12 ?
1

Bench note: what normalized growth did CCCCCC1C(=O)CCC1CC(=O)OC (centres undefined) show?
0.969

----------
assay: chemical genetic growth profiling, strain panel (AID 1159580);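 further: tested at 20 µM; growth read once vehicle control cultures reached saturation at 30 °C; 1 = growth at the plate median or of vehicle wells; lower values mean less growth of the strain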; conditions: S. cerevisiae deletion strains, growth OD, locus YDR054C, strain cdc34, stronger effect = lower value
The campaign covered roughly 5,500 compounds. About 2,000 (36%) were called active. Another 18% or so got no clear call; they are omitted. This is one part of the list.
PROPERTY LABEL: normalized growth
Give the figure only, with no unit attached.

Look up normalized growth: O=C(Nc1cccc2ccccc12)c1ccccc1O
0.842

Returns the measured normalized growth for the input molecule. Input: COc1ccc(CC2CCC(=NOC(=O)c3ccc(C(C)(C)C)cc3)CC2)cc1 (stereo unspecified)
0.98

Would you kindly share the measured normalized growth for S=C(Nc1cc(Cl)c(Cl)cc1Cl)Nc1ccccc1Br ?
0.969

// normalized growth lookup, key: C/C(=N/Nc1ccccc1)c1cc(Cl)cc(Cl)c1O
0.966

Item O=C(NNc1ccc(Cl)cc1)c1ccc(F)cc1F has what recorded normalized growth?
0.949

Fill blank: measured normalized growth of the molecule S=C(NNc1ccccc1)Nc1cc(Cl)ccc1Cl is ____.
0.939

What measured normalized growth goes with CNC(=O)n1nc(C)c(Cc2csc3ccc(Cl)cc23)c1C ?
0.99

Which value of normalized growth has been reported for Cc1nn(Cc2nnc(SCc3cccc(C(F)(F)F)c3)o2)c(C)c1Br in the records?
0.975

For the molecule shown here, COc1ccc(C(=O)NCc2csc3ccc(Cl)cc23)cc1OC , give the reported normalized growth.
0.955

# query: normalized growth of entry O=S(=O)(Nc1ccc(Oc2ccc(OC(F)(F)F)cc2)cc1)c1cccc(Cl)c1
0.988

normalized growth for Cc1c(S(=O)(=O)c2ccc(Cl)cc2)csc1C(=O)NNc1cccc(Cl)c1 ?
0.947
